assay: Terminal half life in ICR mouse at 2 mg/kg, iv administered as single dose by LC/MS/MS analysis; assay type: ADME, organism-based; conditions: in vivo, read-out: beta t1/2 (converted)
OBSERVED_PROPERTY: half-life

>  <COMPOUND_STRING>
CCN(CC(=O)O)CC(=O)N1CCC[C@H]1c1cc(C(=O)Nc2ncc(F)s2)c(C)s1

>  <MEASURED>
96 min

$$$$

----------
assay: AUC (0 to 1.5 hrs) in C57BL/6J mouse plasma at 100 mg/kg, po administered as single dose by LC/MS/MS analysis; type: ADME, organism-based; set-up: time < 1.5 hr, dose 100 mg/kg, route oral

>  <COMPOUND_STRING>
CCN(CC(=O)O)CC(=O)N1CCC[C@H]1c1cc(C(=O)Nc2ncc(F)s2)c(C)s1

>  <AUC(0-t) at 1.5 h>
86900 ng·h/mL

$$$$
